Assay: chemical genetic growth profiling, strain panel (AID 1159580);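 also: tested at 20 µM; growth read once vehicle control cultures reached saturation at 30 °C; 1 = growth at the plate median or of vehicle wells; lower values mean less growth of the strain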
Conditions: S. cerevisiae deletion strains, growth OD, locus YGL240W, strain doc1
The campaign covered roughly 5,500 compounds. About 2,000 (36%) were called active. About 18% were inconclusive and are not listed. Rule as the data show it: active = normalized growth mostly below about 0.91 (no sharp cut-off); inconclusive = no clear call, values can overlap the other calls; inactive = mostly above about 0.92. The list shows a part of the results.
Tick one outcome: active, inactive

-- ask In this assay, the call recorded for `CC1(C)[C@@H]2CC[C@@]1(C)C(=O)C2` was what?
-- reply inactive

-- ask GET /call?item= NCC(O)CC(=O)O (configuration not stated) returns the recorded outcome of this test.
-- reply inactive

-- ask Name the outcome recorded for `COc1ccc(-c2cc(=O)c3c(O)c(OC)c(O[C@H]4O[C@H](CO[C@@H]5O[C@@H](C)[C@H](O)[C@@H](O)[C@H]5O)[C@@H](O)[C@H](O)[C@H]4O)cc3o2)cc1` in the assay.
-- reply inactive

-- ask What outcome does the record of this test show for `NCCCN` ?
-- reply inactive

-- ask Returns: the outcome recorded for C/C=C/CC(C)C(O)C1C(=O)NC(CC)C(=O)N(C)CC(=O)N(C)C(CC(C)C)C(=O)NC(C(C)C)C(=O)N(C)C(CC(C)C)C(=O)NC(C)C(=O)NC(C)C(=O)N(C)C(CC(C)C)C(=O)N(C)C(CC(C)C)C(=O)N(C)C(C(C)C)C(=O)N1C (configuration not stated) in this assay.
-- reply inactive

-- ask Tell me the recorded outcome of this test for CC1CCCC(C)N1NC(=O)c1ccc(Cl)c(S(N)(=O)=O)c1 (configuration not stated) .
-- reply inactive

-- ask Just curious, what result did `CC1=CC(=O)C(C(C)C)=CC1=O` get here?
-- reply inactive

-- ask Identify the outcome logged in this assay for the molecule shown: `O=C(O)C1=CC(=C(c2ccc(O)c(C(=O)O)c2)c2ccc(O)c(C(=O)O)c2)C=CC1=O`
-- reply inactive

-- ask Would you mind telling me which call this test gave COC(=O)CC1C(C)(C)C(OC(C)=O)[C@@H]2[C@@H](OC(C)=O)[C@]34O[C@@]2(O)[C@]1(C)C3CC[C@]1(C)C4=CC(=O)O[C@H]1c1ccoc1 (some centres not stated) ?
-- reply inactive

-- ask Check the results log: what was the call for `CN(C)C(=O)C(CCN1CCC(O)(c2ccc(Cl)cc2)CC1)(c1ccccc1)c1ccccc1` ?
-- reply inactive

-- ask What outcome does the record of this test show for COC1CC(O[C@H]2CC[C@]3(C=O)C4CC[C@]5(C)C(C6=CC(=O)OC6)CC[C@]5(O)C4CC[C@]3(O)C2)OC(C)C1O (some centres not stated) ?
-- reply inactive

-- ask Write down the call the test reported for this molecule. Item: Cc1c(OCC(F)(F)F)ccnc1CS(=O)c1nc2ccccc2[nH]1 (configuration not stated)
-- reply inactive

-- ask Could you please tell me the result logged for `C[N+]1(C)C[C@H](O)[C@H](C(=O)[O-])C1` in this assay?
-- reply inactive

-- ask So what was the verdict on CC(C)(C)NCC(O)COc1cccc2c1C[C@H](O)[C@H](O)C2 (some centres not stated) in this test?
-- reply inactive

-- ask Write down the call the test reported for this molecule. Item: `COc1ccc(-c2cc(=O)c3c(O)cc(O)c(-c4cc(-c5cc(=O)c6c(O)cc(O)cc6o5)ccc4OC)c3o2)cc1`
-- reply inactive

-- ask Hello, I am checking results. What call was entered for `COc1ccc(-c2cc(=O)c3c(OC)c(OC)c(OC)c(OC)c3o2)cc1OC` ?
-- reply inactive

-- ask Can you look up the reported call for `C=CCSSSCC=C` for me?
-- reply inactive

-- ask How was `O=C(/C=C(\O)c1ccccc1)c1ccccc1O` classified in this test?
-- reply active

-- ask For CC1(C)Oc2ccc3ccc(=O)oc3c2CC1O (configuration not stated) , what call appears in the results of this test?
-- reply inactive

-- ask Kindly provide the recorded test outcome for the following molecule: `C=CCSC[C@@H](N)C(=O)O`
-- reply inactive

-- ask Returns: the outcome recorded for `COc1cc(C(=O)N2CCOCC2)cc(OC)c1OC` in this assay.
-- reply inactive

-- ask For O=c1c2cc(O)c(O)cc2oc2cc(O)c(C3O[C@H](CO)[C@H](O)[C@@H](O)[C@H]3O)c(O)c12 (some centres not stated) , which call appears in the assay record?
-- reply active

-- ask Test call, this molecule: `COc1cc2c(cc1OC)-c1c(oc3cc(O)cc(O)c3c1=O)CO2`
-- reply inactive

-- ask Give the logged outcome of this assay for the following molecule: `CSc1nc(NC(C)C)nc(NC(C)C)n1`
-- reply inactive

-- ask Kindly provide the recorded test outcome for the following molecule: C[C@@H]1CC[C@@]23CCC4(C)[C@@](C=CC5[C@@]6(C)CCC(=O)C(C)(C)C6CC[C@]54C)(OC2=O)C3[C@H]1C (some centres not stated)
-- reply inactive

-- ask State the result this test recorded for NC[C@H]1O[C@H](OC2[C@@H](N)C[C@@H](N)[C@H](O[C@H]3O[C@H](CO)[C@@H](O)[C@H](N)[C@H]3O)[C@H]2O)[C@H](O)[C@@H](O)[C@@H]1O (some centres not stated) .
-- reply inactive

-- ask Could you check what this test reported for `NCCCC(O)(P(=O)(O)O)P(=O)(O)O` ?
-- reply inactive

-- ask For this molecule, state the assay outcome: C[C@H]1[C@H](C)CC[C@]2(C(=O)O)CC[C@]3(C)C(=CCC4[C@@]5(C)C[C@@H](O)[C@H](O)[C@@](C)(CO)C5[C@H](O)C[C@]43C)[C@H]12 (some centres not stated)
-- reply active

-- ask // outcome(item) with item = `C=CCSCC=C`
-- reply inactive

-- ask What classification did `NC[C@H]1O[C@H](O[C@H]2[C@H](O)[C@@H](O[C@H]3O[C@H](CO)[C@@H](O)[C@H](N)[C@H]3O)[C@H](N)C[C@@H]2N)[C@H](N)[C@@H](O)[C@@H]1O` end up with in this test?
-- reply inactive

-- ask Hello, I am checking results. What call was entered for `Nc1nc(/C(=C/CC(=O)O)C(=O)N[C@@H]2C(=O)N3C(C(=O)O)=CCS[C@H]23)cs1` ?
-- reply inactive

-- ask Fill in: this test's call for `CC(C)Nc1nc(Cl)nc(NC(C)C)n1` is ___
-- reply inactive

====

Assay: chemical genetic growth profiling, strain panel (AID 1159580);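 also: tested at 20 µM; growth read once vehicle control cultures reached saturation at 30 °C; 1 = growth at the plate median or of vehicle wells; lower values mean less growth of the strain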
Conditions: S. cerevisiae deletion strains, growth OD, locus YGL078C, strain dbp3, hits give low values
Hit rate of the full screen: of about 5,500 compounds, about 2,000 (36%) were called active. About 18% were inconclusive and are not listed. Some of the results follow.
For each of the molecules below, state its normalized growth.
In your answer, state the number alone without any accompanying words.

-- ask I would be grateful if you could share the reported normalized growth for `O=C(O)c1cc(O)ccc1O` .
-- reply 0.988

-- ask Item under review: `C[C@]12CCC(=O)C=C1CCc1ccc(O)cc12` . Reported normalized growth?
-- reply 0.995

-- ask Item C[C@@H](CO)NC(=O)C1C=C2c3cccc4[nH]cc(c34)C[C@H]2N(C)C1 (some centres undefined) has what recorded normalized growth?
-- reply 0.995

-- ask Could you tell me which normalized growth is on file for `CCn1nc(C(=O)O)c(=O)c2cc3c(cc21)OCO3` ?
-- reply 1.01

-- ask I am curious: what normalized growth value has been reported for `CCOC(=O)C1=C(O)C(=O)N(Cc2ccccc2)C1` ?
-- reply 1

-- ask Suppose we examine the molecule `COc1cccc2c1CCC1=CC(=O)CC[C@@]12C` ; what normalized growth value has been reported?
-- reply 0.998

-- ask Reported normalized growth for CC(=O)N1CCCC1C(=O)O (centres undefined) : what is it?
-- reply 1.02

-- ask Please report the recorded normalized growth for C[C@@H]1CCC2[C@](C)(CO)[C@@H](O)CC[C@]2(C)[C@@]12CC[C@@](CO)(CCO)O2 (some centres undefined) .
-- reply 0.985

-- ask Report normalized growth for `COc1ccc(-c2cc(=O)c3c(O)cc(O)c(-c4cc(-c5cc(=O)c6c(O)cc(O)cc6o5)ccc4OC)c3o2)cc1` please.
-- reply 1.01

====

Would you kindly list normalized growth for each of these compounds?
Assay: chemical genetic growth profiling, strain panel (AID 1159580);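 also: tested at 20 µM; growth read once vehicle control cultures reached saturation at 30 °C; 1 = growth at the plate median or of vehicle wells; lower values mean less growth of the strain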
Details: S. cerevisiae deletion strains, growth OD, locus YMR307W, strain GAS1, hits give low values
The campaign covered roughly 5,500 compounds. About 2,000 (36%) were called active. Roughly 18% stayed inconclusive and do not appear here. The list shows a part of the results.

-- ask Look at this compound and give its reported normalized growth. CC(C)NCC(O)COc1ccc(CCOCC2CC2)cc1 (centres undefined)
-- reply 0.998 (inactive)

-- ask What does the record list as normalized growth for COC(=O)CC1C(C)(C)C(OC(C)=O)[C@@H]2[C@@H](OC(C)=O)[C@]34O[C@@]2(O)[C@]1(C)C3CC[C@]1(C)C4=CC(=O)O[C@H]1c1ccoc1 (some centres undefined) ?
-- reply 1.02 (inactive)

-- ask Can you look up the measured normalized growth of `COc1cc(C)c2c(=O)c3c(O)cc(OC)cc3oc2c1` for me?
-- reply 0.976 (inactive)

-- ask // query normalized growth value for entry CO[C@H]1[C@H](O)[C@@H](O[C@H]2CC[C@]3(C=O)C4CC[C@]5(C)[C@@H](C6=CC(=O)OC6)CC[C@]5(O)C4CC[C@@H]3C2)O[C@@H](C)[C@@H]1O (some centres undefined)
-- reply 0.981 (inactive)
